Entries annotated with measured peptide exchange yield
assayedSystem: HLA-A*24 (peptide-receptive MHC class I monomer of the UV-ligand exchange assay) (human)
methodSummary: UV-ligand exchange with anti-b2m ELISA

In the examples that follow, each entry is paired with its recorded peptide exchange yield.
binder="DYLKGLASF [Peptide SEQ ID NO: 163 (…)]" result="> 75%"
binder="KYQDILETI [Peptide SEQ ID NO: 168 (…)]" result="> 75%"
binder="LYLKLWNLI [Peptide SEQ ID NO: 214 (…)]" result="50 to 75%"
binder="YYVESGKLF [Peptide SEQ ID NO: 166 (…)]" result="> 75%"
binder="EYINQGDLHEF [Peptide SEQ ID NO: 275 (…)]" result="50 to 75%"
binder="IYSWILDHF [Peptide SEQ ID NO: 173 (…)]" result="> 75%"

# ---- query binder ----
Query: Given VYRDETGELF [Peptide SEQ ID NO: 226 (…)] , respond with its peptide exchange yield.
Result: 50 to 75%
